TARGET_SYSTEM: Salmonella typhimurium sialidase (Salmonella typhimurium, UniProt P29768)
Sequence (P29768 whole entry): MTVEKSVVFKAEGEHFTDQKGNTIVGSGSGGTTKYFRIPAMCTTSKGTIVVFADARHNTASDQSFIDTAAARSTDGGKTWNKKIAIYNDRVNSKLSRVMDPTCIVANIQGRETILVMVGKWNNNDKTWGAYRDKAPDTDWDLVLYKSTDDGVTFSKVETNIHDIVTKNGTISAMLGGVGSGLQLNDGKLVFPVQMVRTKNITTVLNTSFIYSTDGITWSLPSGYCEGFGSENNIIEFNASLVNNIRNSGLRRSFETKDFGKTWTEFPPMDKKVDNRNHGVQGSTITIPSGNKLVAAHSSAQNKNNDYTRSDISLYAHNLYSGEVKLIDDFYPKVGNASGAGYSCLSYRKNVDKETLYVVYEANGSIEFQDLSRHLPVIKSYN
MEASURED_ATTRIBUTE: Ki
Report the figure along with its unit, number first.

> print(dat)
                                   compound  recorded.value
1  CC(=O)N[C@H]1[C@H](O)CN(C(Cc2ccccc2)C(=O)O)C[C@@H]1O (relative stereo)         0.56 mM

Let us examine a further case.
Which value of Ki has been reported for CC(=O)N[C@H]1[C@H](O)CN(CC(=O)O)C[C@@H]1O in the records?
2.5 mM

====

The following molecules are listed with their measured pKi values.
TARGET_SYSTEM: bacterial sialidases
CONDITION_SET: read-out: Ki (range)
pKi: −log10 of the molar value.

> print(dat)
                                   molecule  recorded.value
1  CC(=O)N[C@H]1[C@H](O)CN(C(Cc2ccccc2)C(=O)O)C[C@@H]1O (relative stereo)    3.00 to 4.00

What reported pKi corresponds to CC(=O)N[C@H]1[C@H](O)CN(CC(=O)O)C[C@@H]1O on bacterial sialidases?
3.00 to 4.00
